meta.source: patent US8816055

- Target desc: human plasma kallikrein (active form) (human), P03952
- Sequence (P03952 20-390, chain 1 of 2): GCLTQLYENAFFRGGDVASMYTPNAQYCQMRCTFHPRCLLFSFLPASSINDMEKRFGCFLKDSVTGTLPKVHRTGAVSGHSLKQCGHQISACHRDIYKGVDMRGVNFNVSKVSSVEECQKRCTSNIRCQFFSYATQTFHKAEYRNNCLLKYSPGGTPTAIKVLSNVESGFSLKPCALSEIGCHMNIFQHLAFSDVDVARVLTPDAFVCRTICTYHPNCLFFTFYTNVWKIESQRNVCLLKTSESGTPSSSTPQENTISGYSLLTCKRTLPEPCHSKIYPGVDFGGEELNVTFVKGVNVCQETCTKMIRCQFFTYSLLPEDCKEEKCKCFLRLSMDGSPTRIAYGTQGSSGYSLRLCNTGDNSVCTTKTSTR
- Sequence (P03952 391-638, chain 2 of 2): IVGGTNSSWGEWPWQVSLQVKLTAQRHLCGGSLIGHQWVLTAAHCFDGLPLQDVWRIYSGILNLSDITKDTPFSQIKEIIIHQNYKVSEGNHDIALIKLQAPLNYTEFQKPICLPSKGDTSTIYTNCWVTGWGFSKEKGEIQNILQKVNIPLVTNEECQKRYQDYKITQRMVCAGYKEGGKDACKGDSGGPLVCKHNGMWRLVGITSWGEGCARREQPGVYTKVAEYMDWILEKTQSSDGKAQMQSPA
- Test description: Ki,app on full length pKal, enzyme inhibition
- Test context: remark: other sources report otherwise
Catalogue of pKi values
Notebook: values listed as pKi are -log10 of the concentration (mol/L).

For orientation, consider the following solved cases.
{"Binder": "X115-G04 (antibody, V domains shown) VL: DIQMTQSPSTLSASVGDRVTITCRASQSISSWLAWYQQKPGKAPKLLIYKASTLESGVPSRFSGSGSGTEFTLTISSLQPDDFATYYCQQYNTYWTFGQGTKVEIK VH: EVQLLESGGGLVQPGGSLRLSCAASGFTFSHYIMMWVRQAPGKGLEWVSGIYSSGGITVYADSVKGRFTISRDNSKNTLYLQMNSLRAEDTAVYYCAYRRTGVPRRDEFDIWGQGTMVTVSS", "pKi": 9.22}
{"Binder": "X115-A03 (antibody, V domains shown) VL: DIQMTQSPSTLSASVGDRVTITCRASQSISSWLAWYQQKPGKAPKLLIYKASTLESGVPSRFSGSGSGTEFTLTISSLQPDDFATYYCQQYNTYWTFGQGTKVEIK VH: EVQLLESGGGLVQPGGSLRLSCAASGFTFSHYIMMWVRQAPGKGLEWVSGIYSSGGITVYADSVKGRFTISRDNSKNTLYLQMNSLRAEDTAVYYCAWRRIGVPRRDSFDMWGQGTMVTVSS", "pKi": 9.80}
{"Binder": "X115-D05 (antibody, V domains shown) VL: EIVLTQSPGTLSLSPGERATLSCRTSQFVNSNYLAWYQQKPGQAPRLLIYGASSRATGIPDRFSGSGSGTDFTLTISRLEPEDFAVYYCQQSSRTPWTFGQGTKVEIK VH: EVQLLESGGGLVQPGGSLRLSCAASGFTFSDYMMAWVRQAPGKGLEWVSSIVPSGGHTHYADSVKGRFTISRDNSKNTLYLQMNSLRAEDTAVYYCARVARGIAARSRTSYFDYWGQGTLVTVSS", "pKi": 9.60}
{"Binder": "X115-D01 (antibody, V domains shown) VL: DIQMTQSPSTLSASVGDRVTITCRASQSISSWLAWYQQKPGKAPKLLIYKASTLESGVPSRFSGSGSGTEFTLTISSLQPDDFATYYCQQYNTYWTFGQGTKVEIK VH: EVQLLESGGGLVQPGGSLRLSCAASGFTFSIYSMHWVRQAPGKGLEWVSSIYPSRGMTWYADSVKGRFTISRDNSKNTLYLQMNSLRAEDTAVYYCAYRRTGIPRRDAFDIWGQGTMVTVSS", "pKi": 9.74}
{"Binder": "X115-H06 (antibody, V domains shown) VL: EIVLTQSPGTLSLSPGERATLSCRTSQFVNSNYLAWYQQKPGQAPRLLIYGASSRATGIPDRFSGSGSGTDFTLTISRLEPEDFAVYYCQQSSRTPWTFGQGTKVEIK VH: EVQLLESGGGLVQPGGSLRLSCAASGFTFSHYLMTWVRQAPGKGLEWVSYISPSGGHTIYADSVKGRFTISRDNSKNTLYLQMNSLRAEDTAVYYCARVAQGISARSRTSYFDYWGQGTLVTVSS", "pKi": 9.46}

Consider X115-E09 (antibody, V domains shown) VL: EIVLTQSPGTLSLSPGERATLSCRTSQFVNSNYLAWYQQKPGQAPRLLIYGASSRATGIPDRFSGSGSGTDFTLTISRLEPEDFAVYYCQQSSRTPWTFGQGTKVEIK VH: EVQLLESGGGLVQPGGSLRLSCAASGFTFSHYLMTWVRQAPGKGLEWVSYISPSGGHTIYADSVKGRFTISRDNSKNTLYLQMNSLRAEDTAVYYCARVAQGIAARSRTSSVDQWGQGTLVTVSS . Its measured pKi is 9.47

Summary for this binder, X115-F02 (Fab, V domains shown) VL: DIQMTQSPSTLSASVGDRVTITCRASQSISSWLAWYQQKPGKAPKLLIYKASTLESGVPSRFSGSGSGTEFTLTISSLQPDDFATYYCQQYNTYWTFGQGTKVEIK VH: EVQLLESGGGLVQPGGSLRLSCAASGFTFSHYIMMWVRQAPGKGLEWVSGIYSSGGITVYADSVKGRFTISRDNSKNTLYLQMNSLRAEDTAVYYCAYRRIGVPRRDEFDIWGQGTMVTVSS : pKi is 10.05

Documented pKi of X115-B07 (antibody, V domains shown) VL: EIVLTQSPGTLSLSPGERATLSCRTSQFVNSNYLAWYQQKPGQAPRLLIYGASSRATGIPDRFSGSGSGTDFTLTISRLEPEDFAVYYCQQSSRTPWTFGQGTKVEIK VH: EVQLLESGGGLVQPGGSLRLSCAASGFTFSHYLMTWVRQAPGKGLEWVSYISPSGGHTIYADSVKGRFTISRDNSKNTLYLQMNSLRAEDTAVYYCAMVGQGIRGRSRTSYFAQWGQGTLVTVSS : 9.48
